biological target: KLC1-TPR N343S mutant (human) (UniProt Q07866); assay: ITC; peptide (1-3 mM) in the syringe injected into 60-130 uM KLC1-TPR or KLC2-TPR (or mutant) in the cell; 25 C; 20 mM Bis-Tris pH 6.5, 500 mM NaCl, 0.5 mM TCEP; one-site binding model
Quantity: Kd

                                     binder  quantity   result
0  Ac-EMDWDDSALT-OH [ALC1 peptide (alcadein-1)]        Kd  44.3 µM

Origin of values: paper PMC3314626
